Molecular target: T1, cyno FcRn/b2M (cyno, UniProt Q8SPV9 24-297; Q8SPW0 21-119, biotinylated)
T1 construct: bought recombinant biotinylated protein (Immunitrack ITF05 or ACRO FCM-C82W5); also called cFcRn; cFcRn/cb2M
T1 sequence (Q8SPV9 24-297 limits assumed, chain 1 of 2): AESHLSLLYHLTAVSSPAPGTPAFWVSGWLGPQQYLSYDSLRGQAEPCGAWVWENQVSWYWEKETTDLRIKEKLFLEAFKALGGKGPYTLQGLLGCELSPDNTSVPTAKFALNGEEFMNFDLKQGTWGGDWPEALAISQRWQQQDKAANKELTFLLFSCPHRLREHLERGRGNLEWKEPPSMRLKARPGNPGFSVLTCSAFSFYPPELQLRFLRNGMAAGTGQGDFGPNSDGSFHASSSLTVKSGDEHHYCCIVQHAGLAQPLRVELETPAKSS
T1 sequence (Q8SPW0 21-119 limits assumed, chain 2 of 2): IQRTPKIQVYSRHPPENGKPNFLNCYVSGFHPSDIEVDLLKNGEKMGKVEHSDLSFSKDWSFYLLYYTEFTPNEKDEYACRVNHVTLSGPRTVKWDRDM
Assay: SPR pH 6.0;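 also: surface plasmon resonance kinetics at 25 °C, diluted periplasmic extracts injected over immobilized ligand surfaces, 120 s association then 600–3600 s dissociation, running buffer containing 150 mM NaCl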

{"binder": "T0263018B11 S52aV (VHH, name in Kabat numbering, FLAG3-His6 tagged) VHH: EVQLVESGGGVVQPGGSLRLSCAASGFTFSSYAMYWVRQAPGKGLEWVSAISVGGGSTDYADSVKGRFTISRDNSKNTLYLQMNSLRPEDTALYYCAADTLYTSLTWYSYWGQGTLVTVSS", "koff": "0.0021 s⁻¹"}
{"binder": "T0263018B11 F27Y (VHH, name in Kabat numbering, FLAG3-His6 tagged) VHH: EVQLVESGGGVVQPGGSLRLSCAASGYTFSSYAMYWVRQAPGKGLEWVSAISSGGGSTDYADSVKGRFTISRDNSKNTLYLQMNSLRPEDTALYYCAADTLYTSLTWYSYWGQGTLVTVSS", "koff": "0.00042 s⁻¹"}
{"binder": "T0263018B11 Y32N (VHH, name in Kabat numbering, FLAG3-His6 tagged) VHH: EVQLVESGGGVVQPGGSLRLSCAASGFTFSSNAMYWVRQAPGKGLEWVSAISSGGGSTDYADSVKGRFTISRDNSKNTLYLQMNSLRPEDTALYYCAADTLYTSLTWYSYWGQGTLVTVSS", "koff": "0.0018 s⁻¹"}
{"binder": "T0263018B11 S52aR (VHH, name in Kabat numbering, FLAG3-His6 tagged) VHH: EVQLVESGGGVVQPGGSLRLSCAASGFTFSSYAMYWVRQAPGKGLEWVSAISRGGGSTDYADSVKGRFTISRDNSKNTLYLQMNSLRPEDTALYYCAADTLYTSLTWYSYWGQGTLVTVSS", "koff": "0.0015 s⁻¹"}
